Source: patent US20240317847A1

# target-entity: T1, human IL2Ra (human, UniProt P01589 22-240, limits assumed)
# T1 construct: bought protein, coated on the plate; also called hIL2RA; IL-2 receptor alpha
# T1 sequence (looked up): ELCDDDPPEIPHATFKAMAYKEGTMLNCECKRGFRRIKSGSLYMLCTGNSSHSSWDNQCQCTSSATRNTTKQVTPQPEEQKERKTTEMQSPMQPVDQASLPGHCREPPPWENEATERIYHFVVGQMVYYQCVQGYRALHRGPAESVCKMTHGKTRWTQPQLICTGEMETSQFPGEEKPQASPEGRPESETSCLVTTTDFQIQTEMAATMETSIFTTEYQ
# assay-text: IL2Ra direct binding ELISA, signal ratio to isotype control
readout: hIL2RA ELISA Binding: Ratio to Isotpye (ratio)
State just the number; it will be interpreted in ratio.

A selection of reference data follows.
TPP-26332 (antibody, V domains shown) VH: EVQLLESGGGLVQPGGSLRLSCAASGFTFSSYKMHWVRQAPGKGLEWVSVISYDGSYKYYADSVKGRFTISRDNSKNTLYLQMNSLRAEDTAVYYCAAGVPDYWGQGTLVTVSS VL: QSVLTQPPSASGTPGQRVTISCTGSSSNIGAGYDVHWYQQLPGTAPKLLIYSNNERPSGVPDRFSGSKSGTSASLAISGLRSEDEADYYCAAWDDSLNGPVFGGGTKLTVL: 19
TPP-26319 (antibody, V domains shown) VH: EVQLLESGGGLVQPGGSLRLSCAASGFTFSSYGMHWVRQAPGKGLEWVSVISYDGSYKYYADSVKGRFTISRDNSKNTLYLQMNSLRAEDTAVYYCAAGVPDYWGQGTLVTVSS VL: QSVLTQPPSASGTPGQRVTISCTGSSSNIGAGYDVHWYQQLPGTAPKLLIYSNNEKPSGVPDRFSGSKSGTSASLAISGLRSEDEADYYCAAWDDSLNGPVFGGGTKLTVL: 235

Entry TPP-26300 (antibody, V domains shown) VH: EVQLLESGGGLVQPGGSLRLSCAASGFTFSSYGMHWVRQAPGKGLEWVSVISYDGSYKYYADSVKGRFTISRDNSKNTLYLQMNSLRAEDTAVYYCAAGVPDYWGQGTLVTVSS VL: QSVLTQPPSASGTPGQRVTISCTGSSSNIGAGYDVHWYQQLPGTAPKLLIYSNNERPSGVPDRFSGSKSGTSASLAISGLRSEDEADYYCAAWDSSLNGPVFGGGTKLTVL needs its hIL2RA ELISA Binding: Ratio to Isotpye filled in; supply it. 447
